B1: KCNA3 (parent)
chain: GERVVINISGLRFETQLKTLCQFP

# Variants of: B1
# EXPERIMENTAL PROTOCOL: protein stability index of a GFP-peptide fusion (GPS, HEK-293T) (PSI 1-6); higher = more stable;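 note: lentivirally expressed fusions sorted by FACS into six bins by GFP to DsRed ratio, PSI derived from sequencing read proportions per bin multiplied by bin number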
# CONDITION SUMMARY: c terminus: a fixed tail appended
Kind request: treat 2 as inclusive, so protein stability index at 2 or higher is Criterion met, anything lower is Criterion not met.

Solved cases below.
INSERT INTO measurements (sequence_code, class_label) VALUES
  ('GERVVINISGLRFEYQLKTLCQFP [T15Y]', 'Criterion met'),
  ('GERVVINISGLRFETQLKTLCQIP [F23I]', 'Criterion met'),
  ('GERVDINISGLRFETQLKTLCQFP [V5D]', 'Criterion not met'),
  ('GERVVINISGLREETQLKTLCQFP [F13E]', 'Criterion met'),
  ('GERVVINISGLRFETQLKTLCQFV [P24V]', 'Criterion not met');

Inquiry: Tell me whether protein stability index is at least 2 here: GERVVINISGLRFTTQLKTLCQFP [E14T]
Reply text: Criterion not met

Inquiry: What would you report for GERVVIYISGLRFETQLKTLCQFP [N7Y] ?
Reply text: Criterion not met

Inquiry: Queued: GERVVINISGLRFETQLKTNCQFP [L20N]
Reply text: Criterion met

Inquiry: # iterate: GERVVINISGLRFETQLKTLCGFP [Q22G]
Reply text: Criterion met

Inquiry: Entry GERVVINFSGLRFETQLKTLCQFP [I8F] please
Reply text: Criterion met

Hello, the source for this data is the supplement of paper PMC10567573, in case you need it.
